assayedSystem: binding of recombinant, trimeric SARS-CoV-2 spike protein to recombinant human ACE2 (Severe acute respiratory syndrome coronavirus 2, UniProt P0DTC2, K986P/R682G/R683S/R685S/V987P)
test: biochemical
Set-up: species or system SARS-CoV-2 / human
Structures can show the parent of a compound that is named as a salt. Numbered stars: 1 amine (or outer) side, 2 acyl side, 3 side chain; on linkers, the order of the positions; unused ones are H or OH. Bridge positions count the residues as written; N and C are the ends. Square brackets hold non-standard residues; d marks the D form. Peptide text beside a SMILES is read from it. * marks the point of attachment. pTerphenylCO(4''-OnC5H11) = CCCCCOc1ccc(-c2ccc(-c3ccc(C(=O)*)cc3)cc2)cc1; Orn(4R-OH,5R-OH) = O=C([C@H](C[C@@H](O)[C@@H](O)N[*:3])N[*:1])[*:2]; hTyr(3S-OH,4S-OH) = N[C@H](C(=O)O)[C@H](O)[C@@H](O)c1ccc(O)cc1; Pro(3S-OH,4S-Me) = C[C@H]1CN[C@H](C(=O)O)[C@H]1O; Hyp = O=C(O)[C@@H]1C[C@@H](O)CN1
I'd be grateful if you could share measured % Inhibition for these entries.
Give the value, in units of %, as a plain number.

Noted for CC[C@@H]([C@H](C)O)n1ncn(-c2ccc(N3CCN(c4ccc(OC[C@@H]5CO[C@@](Cn6cncn6)(c6ccc(F)cc6F)C5)cc4)CC3)cc2)c1=O : its % Inhibition reads 97

Noted for COc1cc([C@@H]2c3cc4c(cc3[C@H](O)[C@H]3COC(=O)[C@@H]23)OCO4)cc(OC)c1OC : its % Inhibition reads 98

Noted for N#Cc1ccc2[nH]cc(CCCCN3CCN(c4ccc5oc(C(N)=O)cc5c4)CC3)c2c1 [Vilazodone HCl] : its % Inhibition reads 99

Noted for NC1CCN(c2nc3c(cc2F)c(=O)c(C(=O)O)cn3-c2ccc(F)cc2F)C1 (stereo not drawn) : its % Inhibition reads 97

Noted for COc1cc([C@@H]2c3cc4c(cc3[C@@H](O[C@@H]3O[C@@H]5CO[C@@H](c6cccs6)O[C@H]5[C@H](O)[C@H]3O)[C@H]3COC(=O)[C@H]23)OCO4)cc(OC)c1O [Teniposide] : its % Inhibition reads 97

Noted for CN1C[C@H](C(=O)N[C@]2(C)O[C@@]3(O)[C@@H]4CCCN4C(=O)[C@H](Cc4ccccc4)N3C2=O)C[C@@H]2c3cccc4[nH]cc(c34)C[C@H]21 [Dihydroergotamine Mesylate] : its % Inhibition reads 94

Noted for CCCCCOc1ccc(-c2ccc(-c3ccc(C(=O)N[C@H]4C[C@@H](O)[C@@H](O)NC(=O)[C@@H]5[C@@H](O)[C@@H](C)CN5C(=O)[C@H]([C@@H](C)O)NC(=O)[C@H]([C@H](O)[C@@H](O)c5ccc(O)cc5)NC(=O)[C@@H]5C[C@@H](O)CN5C(=O)[C@H]([C@@H](C)O)NC4=O)cc3)cc2)cc1 [Anidulafungin] ({pTerphenylCO(4''-OnC5H11)}-[Orn(4R-OH,5R-OH)]T[Hyp][hTyr(3S-OH,4S-OH)]T[Pro(3S-OH,4S-Me)]; lactam 1-C) : its % Inhibition reads 99

Noted for CN1CC(=O)N2[C@H](c3ccc4c(c3)OCO4)c3[nH]c4ccccc4c3C[C@@H]2C1=O : its % Inhibition reads 96

Noted for CCOC(=O)c1c(N)sc2c1CCN(Cc1ccccc1)C2.Cl [Tinoridine Hydrochloride] : its % Inhibition reads 90
